- assay_conditions: human gut metagenome, 24 h, 2 µM; further: call rule not given here
measure: Bacterial Biotransformation

Guide cases for Bacterial Biotransformation, answers given:
>>> recorded_value("CC[C@@]1(O)C(=O)OCc2c1cc1n(c2=O)Cc2cc3c(CN(C)C)c(O)ccc3nc2-1 [TOPOTECAN]")
"Compound NOT metabolized"
>>> recorded_value("COC(=O)[C@H](c1ccccc1Cl)N1CCc2sccc2C1.O=S(=O)(O)O [CLOPIDOGREL BISULFATE]")
"Compound metabolized"
>>> recorded_value("CN1[C@@H]2CC[C@H]1C[C@@H](OC(=O)c1c[nH]c3ccccc13)C2 [TROPISETRON]")
"Compound NOT metabolized"
>>> recorded_value("CC1=C(CC(=O)O)c2cc(F)ccc2/C1=C\\c1ccc([S+](C)[O-])cc1 (configuration not stated)")
"Compound metabolized"
>>> recorded_value("CCN(C(C)=O)c1cccc(-c2ccnc3c(C#N)cnn23)c1 [ZALEPLON]")
"Compound metabolized"

Your task in this section: give Bacterial Biotransformation for each listed record.
1. CSc1ccc2c(c1)C(N1CCN(C)CC1)Cc1ccccc1S2.O=C(O)/C=C\C(=O)O (configuration not stated)
2. CN(C)C(=O)Oc1cc(OC(=O)N(C)C)cc(C(O)CNC(C)(C)C)c1 (configuration not stated) [BAMBUTEROL]
3. CC(=O)Nc1ccc(OC(C)=O)cc1 [DIACETAMATE]
4. C#C[C@]1(OC(C)=O)CC[C@H]2[C@@H]3CCC4=C/C(=N/O)CC[C@@H]4[C@H]3CC[C@@]21CC [NORGESTIMATE]
5. C=C[C@H]1CN2CC[C@H]1C[C@H]2[C@H](O)c1ccnc2ccc(OC)cc12.C=C[C@H]1CN2CC[C@H]1C[C@H]2[C@H](O)c1ccnc2ccc(OC)cc12.O.O.O=S(=O)(O)O [QUININE SULFATE]

1: Compound NOT metabolized; 2: Compound NOT metabolized; 3: Compound metabolized; 4: Compound metabolized; 5: Compound metabolized

Your task in this section: give Bacterial Biotransformation for each listed record.
1. CC(C)(C)N.CCC[C@H](N[C@@H](C)C(=O)N1[C@H](C(=O)O)C[C@@H]2CCCC[C@@H]21)C(=O)OCC [PERINDOPRIL ERBUMINE]
2. CCOc1ccccc1OCCN[C@H](C)Cc1ccc(OC)c(S(N)(=O)=O)c1.Cl [TAMSULOSIN HYDROCHLORIDE]
3. CCN(CC)CCOC(=O)C1(C2CCCCC2)CCCCC1 [DICYCLOMINE]
4. CC(C)(C)NC[C@H](O)COc1nsnc1N1CCOCC1.O=C(O)/C=C\C(=O)O [TIMOLOL MALEATE]
5. CCc1oc2ccccc2c1C(=O)c1cc(Br)c(O)c(Br)c1 [BENZBROMARONE]
6. Clc1cccc(Cl)c1N=C1NCCN1 [CLONIDINE]
7. CNNCc1ccc(C(=O)NC(C)C)cc1 [PROCARBAZINE]

Compound NOT metabolized
Compound NOT metabolized
Compound metabolized
Compound NOT metabolized
Compound metabolized
Compound NOT metabolized
Compound metabolized

###

- assay_conditions: human gut metagenome, 24 h, 2 µM
measure: Bacterial Biotransformation

>>> recorded_value("CCCC(C)(COC(N)=O)COC(=O)NC(C)C (stereo not given) [CARISOPRODOL]")
"Compound metabolized"
>>> recorded_value("Nc1nnc(-c2cccc(Cl)c2Cl)c(N)n1 [LAMOTRIGINE]")
"Compound NOT metabolized"
>>> recorded_value("CCS(=O)(=O)CCn1c([N+](=O)[O-])cnc1C [TINIDAZOLE]")
"Compound metabolized"
>>> recorded_value("O=C1C(CC[S+]([O-])c2ccccc2)C(=O)N(c2ccccc2)N1c1ccccc1 (stereo not given) [SULFINPYRAZONE]")
"Compound metabolized"
>>> recorded_value("CCCN(CCC)CCc1cccc2c1CC(=O)N2 [ROPINIROLE]")
"Compound NOT metabolized"
>>> recorded_value("OCCN(CCO)c1nc(N2CCCCC2)c2nc(N(CCO)CCO)nc(N3CCCCC3)c2n1 [DIPYRIDAMOLE]")
"Compound NOT metabolized"
>>> recorded_value("CC(N)C12CC3CC(CC(C3)C1)C2 (stereo not given) [RIMANTADINE]")
"Compound NOT metabolized"
>>> recorded_value("CN(C)CCc1c[nH]c2ccc(CS(=O)(=O)N3CCCC3)cc12 [ALMOTRIPTAN]")
"Compound NOT metabolized"

Your task in this section: give Bacterial Biotransformation for each listed record.
1. Nc1nc(N)nc(-c2cc(Cl)ccc2Cl)n1.O=C(O)/C=C\C(=O)O [IRSOGLADINE MALEATE]
2. CN(C)C(=O)Oc1cc(OC(=O)N(C)C)cc(C(O)CNC(C)(C)C)c1 (stereo not given) [BAMBUTEROL]

Compound NOT metabolized
Compound NOT metabolized

###

- test_name: The drug is tested on Z-024 corresponding to pig gut metagenome with ENA study accession number: PRJEB37062 and ENA sample accession number: ERS12561823 for biotransformation under anaerobic condition. The drug concentrations were measured over 9 timepoints collected between 0 and 24 hours of incubation by liquid-chromatography-coupled mass spectrometry (LC–MS)
- assay_conditions: 2 µM
measure: Bacterial Biotransformation

Guide cases for Bacterial Biotransformation, answers given:
>>> recorded_value("Nc1nnc(-c2cccc(Cl)c2Cl)c(N)n1")
"Compound NOT metabolized"
>>> recorded_value("CC(C)(C)NC[C@H](O)COc1nsnc1N1CCOCC1.O=C(O)/C=C\\C(=O)O [TIMOLOL MALEATE]")
"Compound NOT metabolized"
>>> recorded_value("COc1ccc(/C=C/C(=O)Nc2ccccc2C(=O)O)cc1OC")
"Compound metabolized"
>>> recorded_value("CCCCCNC(=N)N/N=C/c1c[nH]c2ccc(OC)cc12.O=C(O)/C=C\\C(=O)O [TEGASEROD MALEATE]")
"Compound metabolized"
>>> recorded_value("CC1Cc2ccccc2N1NC(=O)c1ccc(Cl)c(S(N)(=O)=O)c1 (stereo not drawn) [INDAPAMIDE]")
"Compound NOT metabolized"
>>> recorded_value("CC#C[C@]1(O)CC[C@H]2[C@@H]3CCC4=CC(=O)CCC4=C3[C@@H](c3ccc(N(C)C)cc3)C[C@@]21C")
"Compound metabolized"
>>> recorded_value("Br.COc1ccc2c(c1)[C@]13CCCC[C@@H]1[C@H](C2)N(C)CC3.O [DEXTROMETHORPHAN HYDROBROMIDE]")
"Compound metabolized"

Pending compound:
Item under review: CCc1cccc2c3c([nH]c12)C(CC)(CC(=O)O)OCC3 (stereo not drawn) . Reported Bacterial Biotransformation?
Compound NOT metabolized

###

- test_name: The drug is tested on WLS-006 corresponding to human gut metagenome with ENA study accession number: PRJEB37062 and ENA sample accession number: ERS12561741 for biotransformation under anaerobic condition. The drug concentrations were measured over 9 timepoints collected between 0 and 24 hours of incubation by liquid-chromatography-coupled mass spectrometry (LC–MS)
- assay_conditions: 2 µM
measure: Bacterial Biotransformation

Guide cases for Bacterial Biotransformation, answers given:
>>> recorded_value("COc1ccc2cc([C@H](C)C(=O)O)ccc2c1")
"Compound metabolized"
>>> recorded_value("COc1cc(C(=O)NCc2ccc(OCCN(C)C)cc2)cc(OC)c1OC [TRIMETHOBENZAMIDE]")
"Compound NOT metabolized"
>>> recorded_value("COc1cc2nc(N3CCN(C(=O)C4COc5ccccc5O4)CC3)nc(N)c2cc1OC.CS(=O)(=O)O (stereo unspecified) [DOXAZOSIN MESYLATE]")
"Compound metabolized"
>>> recorded_value("CC(=O)OCC(CCn1cnc2cnc(N)nc21)COC(C)=O")
"Compound metabolized"
>>> recorded_value("CCCCC(=O)O[C@]1(C(=O)CO)[C@@H](C)C[C@H]2[C@@H]3CCC4=CC(=O)C=C[C@]4(C)[C@@]3(F)[C@@H](O)C[C@@]21C [BETAMETHASONE VALERATE]")
"Compound metabolized"

Your task in this section: give Bacterial Biotransformation for each listed record.
1. CCN(CC)CCNC(=O)c1ccc(NC(C)=O)cc1 [ACECAINIDE]
2. CNCC[C@H](Oc1cccc2ccccc12)c1cccs1
3. CN(CCOc1ccc(CC2SC(=O)NC2=O)cc1)c1ccccn1.O=C(O)/C=C\C(=O)O (stereo unspecified) [ROSIGLITAZONE MALEATE]
4. CCOc1ccc2nc(S(N)(=O)=O)sc2c1 [ETHOXZOLAMIDE]
5. O=C1C(CC[S+]([O-])c2ccccc2)C(=O)N(c2ccccc2)N1c1ccccc1 (stereo unspecified)

1. Compound NOT metabolized
2. Compound metabolized
3. Compound metabolized
4. Compound NOT metabolized
5. Compound metabolized

###

- assay_conditions: human gut metagenome, 24 h, 2 µM
measure: Bacterial Biotransformation

>>> recorded_value("N#Cc1ccc2c(c1)N(CCCN1CCC(O)CC1)c1ccccc1S2 [PERICIAZINE]")
"Compound NOT metabolized"
>>> recorded_value("CCS(=O)(=O)CCn1c([N+](=O)[O-])cnc1C [TINIDAZOLE]")
"Compound metabolized"
>>> recorded_value("CC(C)(C)NCC(O)COc1cccc2c1CC(O)C(O)C2 (configuration not stated) [NADOLOL]")
"Compound NOT metabolized"
>>> recorded_value("CC(=O)OCC(=O)NCCCOc1cccc(CN2CCCCC2)c1 [ROXATIDINE ACETATE]")
"Compound metabolized"
>>> recorded_value("CC[C@H](C)C(=O)O[C@H]1CCC=C2C=C[C@H](C)[C@H](CC[C@@H]3C[C@@H](O)CC(=O)O3)[C@H]21 [MEVASTATIN]")
"Compound metabolized"
>>> recorded_value("COc1ccnc(C[S+]([O-])c2nc3ccc(OC(F)F)cc3[nH]2)c1OC (configuration not stated) [PANTOPRAZOLE]")
"Compound metabolized"
>>> recorded_value("COc1ccc2cc([C@H](C)C(=O)O)ccc2c1 [NAPROXEN]")
"Compound metabolized"
>>> recorded_value("CN(C)CCOC(C)(c1ccccc1)c1ccccn1.O=C(O)CCC(=O)O (configuration not stated) [DOXYLAMINE SUCCINATE]")
"Compound NOT metabolized"
>>> recorded_value("CC(=O)OCC(=O)[C@@]1(OC(C)=O)[C@@H](C)C[C@H]2[C@@H]3C[C@H](F)C4=CC(=O)C=C[C@]4(C)[C@@]3(F)[C@@H](O)C[C@@]21C [DIFLORASONE DIACETATE]")
"Compound metabolized"
>>> recorded_value("CN(C)C(=O)Oc1cccc([N+](C)(C)C)c1.[Br-] [NEOSTIGMINE BROMIDE]")
"Compound NOT metabolized"

Your task in this section: give Bacterial Biotransformation for each listed record.
1. CN1CCC(=C2c3ccccc3CC(=O)c3sccc32)CC1.O=C(O)/C=C/C(=O)O [KETOTIFEN FUMARATE]
2. CN(CCOc1ccc(CC2SC(=O)NC2=O)cc1)c1ccccn1.O=C(O)/C=C\C(=O)O (configuration not stated) [ROSIGLITAZONE MALEATE]

1: Compound NOT metabolized; 2: Compound NOT metabolized

Your task in this section: give Bacterial Biotransformation for each listed record.
1. CCN1CCCC1CNC(=O)c1cc(S(=O)(=O)CC)c(N)cc1OC (configuration not stated) [AMISULPRIDE]
2. C#C[C@]1(OC(C)=O)CC[C@H]2[C@@H]3CCC4=CC(=O)CC[C@@H]4[C@H]3CC[C@@]21C [NORETHINDRONE ACETATE]
3. O=C1CN2Cc3c(ccc(Cl)c3Cl)N=C2N1 [ANAGRELIDE]
4. CC(C)NCC(O)COc1ccc(CC(N)=O)cc1 (configuration not stated) [ATENOLOL]
5. Cc1cc2c(s1)Nc1ccccc1N=C2N1CCN(C)CC1 [OLANZAPINE]

["Compound NOT metabolized", "Compound metabolized", "Compound NOT metabolized", "Compound metabolized", "Compound metabolized"]
